Test: Inhibition of NLRP3-dependent pyroptosis in PMA-differentiated human THP-1 cells assessed as inhibition of LPS/ATP-induced cell death pretreated for 4 hrs with LPS followed by incubation with compound for 1 hr and later treated with ATP for 1.5 hrs by LDH assay
Measurement kind: IC50 (nM)

1. CCOC(=O)Cn1nc(Cc2ccccc2Cl)oc1=O; 1550

Data credit: BindingDB's records for doi:10.1016/j.ejmech.2023.115542
